experiment: Apparent clearance in Sprague-Dawley rat serum at 10 mg/kg, po administered as single dose by LC-MS/MS analysis; format: ADME, organism-based
parameter_measured: CL/F (mL/min/kg)
Answers are plain numbers, in mL/min/kg.

Problem: Read off the recorded CL/F for O=C(CN1CCN(c2ccc([N+](=O)[O-])cc2)CC1)N1CCN(c2ccc([N+](=O)[O-])cc2)CC1
Result: 6.67

====

Hi there, I'd appreciate the recorded EC50 for every entry that follows.
tested on: PC-3; assay: Antiproliferative activity against human PC3 cells assessed as decrease in cell viability after 24 hrs by MTT assay; format: functional, cell-based; conditions: PC-3, 24 h

smiles_string: O=C(CN1CCN(c2ccc([N+](=O)[O-])cc2)CC1)N1CCN(c2ccc([N+](=O)[O-])cc2)CC1
observed_result: > 80 µM
//
smiles_string: O=C(CCl)N1CCN(c2ccc([N+](=O)[O-])cc2)CC1
observed_result: 65 µM

Now consider the entry below.
Problem: Read off the recorded EC50 for COc1ccccc1N1CCN(C(=O)CCl)CC1
Result: > 80 µM
